Origin of measurements: the METLIN SMRT retention time set (Domingo-Almenara et al. 2019)

Assay: gradient 5% acetonitrile 3 min, to 50% in 2 min, to 85% in 15 min, held 3 min, 100 µL/min
Conditions: column: Zorbax Extend-C18 2.1 x 50 mm; eluents: water / acetonitrile, 0.1% formic acid
Field: RP-LC retention time. Provide a value for each of the compounds that follow.

Some solved entries appear below for comparison.
>>> value_reported("O=C(Nc1ccc(F)cc1)N1CCC(n2cnc3c(Cl)cccc3c2=O)CC1")
"805 s"
>>> value_reported("CCN1C(=O)Cc2cc(C(=O)N3CCN(c4ccccc4F)CC3)ccc21")
"848 s"
>>> value_reported("CC1CN2C=NC(N3CCN(C(=O)Nc4ccccc4C(F)(F)F)CC3)=CC2=N1 (stereo unspecified)")
"616 s"
>>> value_reported("CCc1nc(-c2csc(S(=O)(=O)N3CCCC(C(=O)Nc4cc(C)ccc4OC)C3)c2)no1 (stereo unspecified)")
"1130 s"
>>> value_reported("CCS(=O)(=O)N1CCC[C@H](n2c(=O)n(C)c3cccnc32)C1")
"698 s"
>>> value_reported("CCN(CC)CCc1nc(-c2ccccc2)no1")
"674 s"
>>> value_reported("COc1cccc(-c2noc(C3CCCN3C(=O)NCc3ccco3)n2)c1 (stereo unspecified)")
"615 s"
>>> value_reported("CSc1ccc(-c2nc3c(C)cccn3c2Nc2ccccc2C)cc1")
"810 s"
>>> value_reported("CCOc1ccc(-c2ccc(=O)n(Cc3nc(-c4cccc(C)c4)no3)n2)cc1")
"1120 s"
>>> value_reported("COc1ccc(Cl)cc1NC(=O)C1CCN(S(=O)(=O)c2ccc3c(c2)NC(=O)C(C)O3)CC1 (stereo unspecified)")
"946 s"

Can you look up the measured RP-LC retention time of O=C(CSc1nnc(NC(=O)C2CCCCC2)s1)Nc1nccs1 for me?
747 s

###

For each of the compounds below, state its RP-LC retention time.
Experiment: gradient 5% acetonitrile 3 min, to 50% in 2 min, to 85% in 15 min, held 3 min, 100 µL/min
Settings: column: Zorbax Extend-C18 2.1 x 50 mm; eluents: water / acetonitrile, 0.1% formic acid
Numbers only, in s.

>>> value_reported("CCOc1ccc(CN2C[C@@H]3C(=O)N(CCc4ccccc4)C(=O)[C@@H]3C2)cc1OC")
634

For each entry beneath this line, provide reported RP-LC retention time.
1. COc1ccc(NC(=O)C2CC(=O)N(c3ccc4oc(C)nc4c3)C2)cc1Cl (centres undefined)
2. CCOC(=O)c1noc2nc(C)nc(Nc3ccccc3)c12
3. Cn1cc2c3c(cccc31)CN(C(=O)c1ccccc1F)CC2

742
1010
875

###

Experiment: gradient 5% acetonitrile 3 min, to 50% in 2 min, to 85% in 15 min, held 3 min, 100 µL/min
Details: column: Zorbax Extend-C18 2.1 x 50 mm; eluents: water / acetonitrile, 0.1% formic acid
Cut-off 800 s on RP-LC retention time: below means criterion met, at or above means criterion not met.

Worked set:
>>> assigned_category("CCNc1cc(N2CCC(CCC(=O)NCc3ccc(F)cc3Cl)CC2)ncn1")
"criterion met"
>>> assigned_category("CC1Cc2ccccc2N1C(=O)c1ccc(=O)n(CCC(=O)N2CCN(C3CCCCC3)CC2)n1 (centres undefined)")
"criterion met"
>>> assigned_category("COCC(=O)Nc1ccc(-c2nc(-c3ccc(C)cc3C)co2)cc1")
"criterion not met"
>>> assigned_category("COc1ccc(-c2noc(CN3N=NC4C(=O)N(c5cccc(F)c5)C(=O)C43)n2)cc1OC (centres undefined)")
"criterion not met"

Lab log: compare recorded RP-LC retention time with 800 s; is it strictly lower for COc1ccccc1C1(CNC(=O)C(=O)NCCC2=CCCCC2)CCOCC1 ?
criterion not met

Same thing, different compound: O=C(Cn1c(=O)c(CCC(=O)NC2CCCC2)nc2ccccc21)Nc1ccc(F)c(Cl)c1
criterion met

Repeat with Cc1nc(-c2cn(C)c3ncccc23)sc1C(=O)Nc1cc(F)cc(F)c1
criterion not met
